Numbers sourced from paper PMC8500343.

Run Description: Food effect part
Assay type: in vivo, human (healthy adult subjects)
Run Conditions: both, human, plasma, oral, AUC0–∞, Group 2, FDC, fed (Treatment C); mean (SD)
Measured AUC(0-inf) accompanies every entry in the list below.
Please give a number only; it is taken to be in ng·h/mL.

Study these solved cases before continuing.
- Structure String: "NS(=O)(=O)Nc1ncnc(OCCOc2ncc(Br)cn2)c1-c1ccc(Br)cc1"
  Scale Unit: "ng·h/mL"
  AUC(0-inf): 20300
- Structure String: "CN1CC(=O)N2[C@H](c3ccc4c(c3)OCO4)c3[nH]c4ccccc4c3C[C@@H]2C1=O"
  Scale Unit: "ng·h/mL"
  AUC(0-inf): 22500

Next, consider the following molecule.
Determine from records and report AUC(0-inf) for CCCNS(=O)(=O)Nc1ncnc(OCCOc2ncc(Br)cn2)c1-c1ccc(Br)cc1
6540

###

Measured Tmax accompanies every entry in the list below.
Run Description: Food effect part
Format: in vivo, human (healthy adult subjects)
Run Conditions: both, human, plasma, oral
Please give a number only; it is taken to be in h.

- Compound: "CCCNS(=O)(=O)Nc1ncnc(OCCOc2ncc(Br)cn2)c1-c1ccc(Br)cc1 [Macitentan]"
  Scale Unit: "h"
  Tmax: 10

Determine from records and report Tmax for CN1CC(=O)N2[C@H](c3ccc4c(c3)OCO4)c3[nH]c4ccccc4c3C[C@@H]2C1=O [Tadalafil]
2.5

###

Run Description: Food effect part
Type: in vivo, human (healthy adult subjects)
Run Conditions: both, human, plasma, oral
Measured half-life accompanies every entry in the list below.
Please give a number only; it is taken to be in h.

Determine from records and report half-life for CCCNS(=O)(=O)Nc1ncnc(OCCOc2ncc(Br)cn2)c1-c1ccc(Br)cc1
15.5

Determine from records and report half-life for CN1CC(=O)N2[C@H](c3ccc4c(c3)OCO4)c3[nH]c4ccccc4c3C[C@@H]2C1=O
24.5

###

Measured AUC(0-t) accompanies every entry in the list below.
Run Description: Bioequivalence part
Type: in vivo, human (healthy adult subjects)
Run Conditions: both, human, plasma, oral, AUC0–last, Group 1, FDC, fasted (Treatment A); mean (SD)
Please give a number only; it is taken to be in ng·h/mL.

- Compound: "CN1CC(=O)N2[C@H](c3ccc4c(c3)OCO4)c3[nH]c4ccccc4c3C[C@@H]2C1=O [Tadalafil]"
  AUC(0-t) / ng·h/mL: 20600

Determine from records and report AUC(0-t) for CCCNS(=O)(=O)Nc1ncnc(OCCOc2ncc(Br)cn2)c1-c1ccc(Br)cc1 [Macitentan]
5850

Determine from records and report AUC(0-t) for NS(=O)(=O)Nc1ncnc(OCCOc2ncc(Br)cn2)c1-c1ccc(Br)cc1 [Aprocitentan]
20900

###

Measured AUC(0-t) accompanies every entry in the list below.
Run Description: Food effect part
Type: in vivo, human (healthy adult subjects)
Run Conditions: both, human, plasma, oral, AUC0–last, Group 2, FDC, fasted (Treatment D); mean (SD)

- Structure String: "CN1CC(=O)N2[C@H](c3ccc4c(c3)OCO4)c3[nH]c4ccccc4c3C[C@@H]2C1=O"
  AUC(0-t): "19700 ng·h/mL"

Next, consider the following compound.
Determine from records and report AUC(0-t) for CCCNS(=O)(=O)Nc1ncnc(OCCOc2ncc(Br)cn2)c1-c1ccc(Br)cc1
6220 ng·h/mL
